molecular target: Receptor tyrosine-protein kinase erbB-2 (Homo sapiens) (UniProt P04626); experiment: Her2 expression decrease, cell viability multiplex – SKBR3 breast tumor cells, AlphaScreen, ATP viability, primary screen (AID 461); details: 18-24 h, at 10 µM, stronger effect = lower value;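 as to Her2 level: lower value means less Her2 protein in the cells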;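 as to viability: percent of carrier control wells set as 100% viability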
Sequence (P04626 whole entry, looked up): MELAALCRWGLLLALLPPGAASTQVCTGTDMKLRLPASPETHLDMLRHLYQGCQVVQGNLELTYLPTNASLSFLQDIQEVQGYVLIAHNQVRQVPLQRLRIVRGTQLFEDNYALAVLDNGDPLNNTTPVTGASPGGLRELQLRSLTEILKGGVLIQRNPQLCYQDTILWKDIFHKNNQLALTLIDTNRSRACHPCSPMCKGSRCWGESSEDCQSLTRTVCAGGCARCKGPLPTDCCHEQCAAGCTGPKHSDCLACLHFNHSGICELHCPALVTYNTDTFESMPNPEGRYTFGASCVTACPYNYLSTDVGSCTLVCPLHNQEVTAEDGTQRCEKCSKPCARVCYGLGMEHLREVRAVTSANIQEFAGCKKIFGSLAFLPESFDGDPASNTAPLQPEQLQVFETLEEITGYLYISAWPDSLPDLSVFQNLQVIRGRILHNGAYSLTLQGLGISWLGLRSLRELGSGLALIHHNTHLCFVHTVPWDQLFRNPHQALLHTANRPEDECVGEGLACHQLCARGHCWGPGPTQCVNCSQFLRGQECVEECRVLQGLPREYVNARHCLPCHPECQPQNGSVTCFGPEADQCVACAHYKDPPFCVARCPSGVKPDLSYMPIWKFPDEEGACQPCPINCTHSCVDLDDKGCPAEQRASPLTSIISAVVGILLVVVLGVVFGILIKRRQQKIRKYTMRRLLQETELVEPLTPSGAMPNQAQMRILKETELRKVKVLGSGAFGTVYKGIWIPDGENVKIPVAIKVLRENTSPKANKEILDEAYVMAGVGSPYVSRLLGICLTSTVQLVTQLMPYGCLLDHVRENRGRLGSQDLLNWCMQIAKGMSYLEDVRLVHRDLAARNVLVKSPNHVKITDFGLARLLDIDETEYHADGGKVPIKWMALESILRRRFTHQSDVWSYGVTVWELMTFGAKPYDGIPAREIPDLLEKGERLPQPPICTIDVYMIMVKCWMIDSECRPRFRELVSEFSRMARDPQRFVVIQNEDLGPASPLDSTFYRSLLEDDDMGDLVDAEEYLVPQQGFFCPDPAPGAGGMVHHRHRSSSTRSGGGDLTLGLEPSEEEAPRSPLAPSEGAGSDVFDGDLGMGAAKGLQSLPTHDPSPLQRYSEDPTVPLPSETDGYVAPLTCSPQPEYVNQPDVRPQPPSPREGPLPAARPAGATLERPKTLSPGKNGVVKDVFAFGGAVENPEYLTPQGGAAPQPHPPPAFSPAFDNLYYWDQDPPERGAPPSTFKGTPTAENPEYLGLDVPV
readout: Her2 level (%)
Answer format: numeric, % implied, no suffix.

The following compounds have reported results that may help.
{"compound": "CC1CCN(C(=O)CSCC(=O)Nc2nc(-c3cccs3)cs2)CC1", "system": "Receptor tyrosine-protein kinase erbB-2 (Homo sapiens) (UniProt P04626)", "Her2 level (%)": 80.5}
{"compound": "CC(NC(=O)c1noc2c1CCCCC2)c1ccccc1 (stereo not drawn)", "system": "Receptor tyrosine-protein kinase erbB-2 (Homo sapiens) (UniProt P04626)", "Her2 level (%)": 93.5}
{"compound": "Cc1ccc(S(=O)(=O)NCCOC(=O)Nc2sc(=S)n(C)c2C)cc1", "system": "Receptor tyrosine-protein kinase erbB-2 (Homo sapiens) (UniProt P04626)", "Her2 level (%)": 96.5}
{"compound": "O=C(CSc1nnc2ccccn12)c1ccccc1", "system": "Receptor tyrosine-protein kinase erbB-2 (Homo sapiens) (UniProt P04626)", "Her2 level (%)": 88}
{"compound": "C(/CCc1ccccc1)=N\\n1cnnc1", "system": "Receptor tyrosine-protein kinase erbB-2 (Homo sapiens) (UniProt P04626)", "Her2 level (%)": 94.5}
{"compound": "CCOC(=O)c1oc2c(CN3CCN(C)CC3)c(O)ccc2c(=O)c1-c1ccccc1OC", "system": "Receptor tyrosine-protein kinase erbB-2 (Homo sapiens) (UniProt P04626)", "Her2 level (%)": 110}
{"compound": "COC(=O)c1ccc(-n2nnnc2SCc2nn[nH]n2)cc1", "system": "Receptor tyrosine-protein kinase erbB-2 (Homo sapiens) (UniProt P04626)", "Her2 level (%)": 135}
{"compound": "CCCc1cc(C(=O)Nc2ccc(C(C)=O)cc2)no1", "system": "Receptor tyrosine-protein kinase erbB-2 (Homo sapiens) (UniProt P04626)", "Her2 level (%)": 91}

## Input Please report the recorded Her2 level for O=c1[nH]c(SCc2ccc(F)cc2)nc2c1cnn2-c1ccc(F)cc1 .
## Output 106

## Input Entry Cc1c(-n2c(CN3C(=O)c4ccccc4C3=O)nc3ccccc3c2=O)c(=O)n(-c2ccccc2)n1C please
## Output 110

## Input O=C(C1CCCN(S(=O)(=O)c2cccnc2)C1)N1CCn2c1nc1ccccc12 (stereo not drawn) , same question.
## Output 103

## Input Try this compound too: Cc1cc(C)nc(NC(=O)c2cnc3sccn3c2=O)n1
## Output 88.5

## Input And Cc1cccc(C2CC(c3ccc(Cl)cc3)Nc3nc(N)nn32)c1 (stereo not drawn) ?
## Output 113

## Input Please do the same for Cc1ccc(C(=O)NC(Cc2c[nH]c3ccccc23)C(=O)O)o1 (stereo not drawn) as well.
## Output 130

## Input For O=C(CCN1C(=O)c2ccccc2C1=O)Nc1ccc(F)cc1 then?
## Output 76

----------
experiment: Her2 expression decrease, cell viability multiplex – SKBR3 breast tumor cells, AlphaScreen, ATP viability, primary screen (AID 461); details: SKBR3 Her2 protein level, 18-24 h, measured here: SKBR3 viability, ATP luminescence, at 10 µM;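 as to viability: percent of carrier control wells set as 100% viability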
readout: viability (%)
Express it in %; write the number only.

## Input State the recorded viability for this entry: O=C1c2ccccc2C(Nc2ccc3c(c2)OCO3)N1Cc1ccc2c(c1)OCO2 (stereo not given)
## Output 86

## Input Now give it for Cc1noc(C)c1CSc1ccccc1C(=O)N1CCN(c2ccccc2)CC1 too.
## Output 87

## Input Next compound: CCOC(=O)Cn1c(=O)c(-c2ccccc2N)nc2ccccc21
## Output 101

## Input Same lookup for CCOC(=O)c1ccccc1NC(=O)CSc1nccn1C , please.
## Output 89

## Input What would you report for O=C(CSc1nnnn1-c1ccccc1Cl)Nc1ccc2c(c1)OCCO2 ?
## Output 91.5

## Input CC1C(=O)C(C)C(c2cccs2)NC1c1cccs1 (stereo not given) ?
## Output 83

----------
assay: growth suppression of yeast trafficking mutant, preliminary HTS, modulators of trafficking downstream of Golgi apparatus project, 1536-format plate, OD 615 nm (AID 637); details: yeast transport mutant growth, absorbance 615 nm, 18 h; stronger effect = higher value
Catalogue of inhibition values
// note: answer is a bare numeric in %

# annotated cases, reported inhibition shown
{"compound": "c1ccc2c(c1)nc(NC1CCCCC1)c1nncn12", "inhibition, %": -1.17}
{"compound": "COc1ccc(OC)c(NC(=O)CSc2nnc(Cc3cccn3C)n2-c2ccc(F)cc2)c1", "inhibition, %": 0}
{"compound": "CC(C)C(NC(=O)c1ccc(S(=O)(=O)N2CCOCC2)cc1)c1nc2ccccc2[nH]1 (configuration not stated)", "inhibition, %": -2.95}
{"compound": "O=C(NCc1ccccc1)C1CCN(S(=O)(=O)c2cccc3cccnc23)CC1", "inhibition, %": -2.79}
{"compound": "CCN(CCCNS(=O)(=O)c1ccc2c(c1)oc(=O)n2C)c1cccc(C)c1", "inhibition, %": 1.33}
{"compound": "CC1(C)CC(=O)N(CC(=O)NCc2ccccc2)c2ccccc2S1(=O)=O", "inhibition, %": -1.33}

## Input Return reported inhibition; argument: CC(C)CCSc1nc2c(c(=O)[nH]c(=O)n2C)n1CCCc1ccccc1
## Output 4.17

## Input Okay, and Cc1ccc(C)n1-n1c(C)nc2sc(-c3ccccc3)cc2c1=O ?
## Output 2.67

## Input Can you handle CCCCOCCCNC(=O)COc1ccccc1 next?
## Output -2.46

## Input Also, Cc1cc(=O)oc2c1ccc1oc(/C(=N/O)c3ccccc3)c(C)c12 please.
## Output 17.2

## Input Let us now turn to CCCc1cc(C(=O)Nc2sc(C)c(C)c2C(=O)OCC)no1
## Output 1.17

## Input Same question for COc1cc(NC(=O)CC(C)C)ccc1NC(=O)c1ccco1 please.
## Output -9.68

## Input Same question for CC(=O)NC(C)c1nc2ccccc2n1C(C)C (configuration not stated) please.
## Output -2

----------
test: doxorubicin toxicity protection in MRP-1 cells – H69AR cells, CellTiter-Glo, duplicate, MRP-1 activator project, pilot screen (AID 807); settings: H69AR viability with doxorubicin, CellTiter-Glo luminescence; at 10 µM; stronger effect = higher value;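 also: compound pretreatment 18-22 h then 72 h combined with doxorubicin; 0% = doxorubicin alone and 100% = vehicle without doxorubicin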
compounds and their reported viability increase
Express your answer in %, writing the number without its unit.

Worked examples follow.
{"compound": "COc1ccc(NC(=O)c2cnc3n(c2=O)CCS3)cc1OC", "viability increase / %": 1.5}
{"compound": "CC1CCc2nn(CC(=O)NCCC3=CCCCC3)cc2C1 (stereo unspecified)", "viability increase / %": -1.4}
{"compound": "Cc1ccc(C2N(c3ccc(F)cc3)C(=O)C3CCCN32)cc1 (stereo unspecified)", "viability increase / %": -1.55}

Let us move to another entry and its viability increase.
## Input What does the record list as viability increase for CCN(CC)C(=O)Oc1ccccc1NC(C)=O ?
## Output -0.54

----------
Form field: viability increase (one value per entry).
test: doxorubicin toxicity protection in MRP-1 cells – H69AR cells, CellTiter-Glo, duplicate, MRP-1 activator project, pilot screen (AID 807); details: H69AR viability with doxorubicin, CellTiter-Glo luminescence; at 10 µM; stronger effect = higher value;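 also: compound pretreatment 18-22 h then 72 h combined with doxorubicin; 0% = doxorubicin alone and 100% = vehicle without doxorubicin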
Respond numerically; units are % and should not be typed.

Example entries begin here.
{"compound": "COc1ccc(-c2[nH]c(-c3cccc(OC)c3)nc2SCC(=O)NCc2ccco2)cc1", "viability increase [%]": -4.56}
{"compound": "O=C(Nc1nncs1)c1ccccc1NS(=O)(=O)c1cccs1", "viability increase [%]": -1.16}
{"compound": "CCOC(=O)N1CCN(C(c2ccc(Cl)cc2)c2sc3nc(C)nn3c2O)CC1 (stereo not drawn)", "viability increase [%]": 0.03}
{"compound": "COCCn1c(SCC(=O)N2CCc3ccccc32)nc2c(c1=O)SC(C)C2 (stereo not drawn)", "viability increase [%]": -2.72}
{"compound": "CC(=O)Nc1cccc(Oc2nc(C)cc(C)c2C#N)c1", "viability increase [%]": 2.21}

## Input Which viability increase is reported for this compound? Cc1nc2ccc(C(=O)c3ccccc3)cc2[nH]1
## Output 0.26

## Input Quick one: O=C(C1CCCN1S(=O)(=O)c1cccc2cccnc12)N1CCn2c1nc1ccccc12 (stereo not drawn)
## Output 0.79

## Input COc1cccc(C2CC(=O)Nc3c2c(=O)n(C)c(=O)n3C)c1OC (stereo not drawn) ?
## Output 0.25

----------
growth inhibition values by entry
test: S. cerevisiae growth inhibition in permissive medium (OD615), pilot counter-assay for S. cerevisiae lifespan shortening project, permissive growth control (AID 705); conditions: OD615, 24 h, at 10 µM, stronger effect = higher value
Numeric answer only, unit % assumed.

{"compound": "O=C(CSc1nc2c(c(=O)n1-c1ccc(F)cc1)SCC2)NCc1ccco1", "readout": "growth inhibition", "result_value": 8.53}
{"compound": "CC(=O)Nc1ccc(S(=O)(=O)NCc2ccc3c(c2)cc(C)n3C)cc1", "readout": "growth inhibition", "result_value": 8.2}
{"compound": "Cc1cc(NC(=O)CSc2nc3c(c(=O)n2CCc2ccccc2)SC(C)C3)no1 (stereo not given)", "readout": "growth inhibition", "result_value": -12.6}
{"compound": "O=C1c2ccccc2C(Nc2cccnc2)N1Cc1ccccc1Cl (stereo not given)", "readout": "growth inhibition", "result_value": -5.58}
{"compound": "Cc1ccc(N2CCN(c3cc(C)nc4nc(C)nn34)CC2)c(C)c1", "readout": "growth inhibition", "result_value": -17.8}

## Input For the compound O=C(CSc1nnc(C2COc3ccccc3O2)o1)N1CCCCC1 (stereo not given) , what growth inhibition is on record?
## Output -7.62

## Input Query CN1C(=O)CS(=O)c2ccc(C(=O)NCCC3=CCCCC3)cc21 (stereo not given) next
## Output 0.135

## Input Would you kindly repeat that for O=C(NCc1cccs1)C1CCCN1S(=O)(=O)c1ccccc1F (stereo not given) ?
## Output -2.45

## Input And the next one, CCc1cc2c(NCCC(=O)O)ncnc2s1 ?
## Output -7.78

## Input Note, next up: CC(=O)c1c(C)cc(C)c(CSc2nc(C)cc(=O)[nH]2)c1C
## Output 2.49

## Input Another: COc1ccc(N2CCN(Cc3nc4c(c(=O)n(C)c(=O)n4C)n3Cc3ccccc3C)CC2)cc1
## Output -12.5

## Input Param item: O=C(c1sc2ccccc2c1Cl)N(Cc1cccs1)C1CCS(=O)(=O)C1 (stereo not given)
## Output -7.52
